Measured values drawn from ChEMBL document CHEMBL1201862 for this set.

System: SF-268
assayOverview: NCI tumour cell line growth inhibition, 48 h
The source made the active and inactive calls. Rule as the data show it: active = GI50 up to about 1.1 µM and inactive = higher. Residues, ends and D or L forms follow the SMILES beside them.

molecule	GI50
Cc1cc(-c2nc3cccc(F)c3s2)ccc1N	> 35 µM (inactive)
O=c1n(-c2ccccc2)c(=O)n2n1C1Cc3ccccc3C12 (stereo not drawn)	> 100 µM (inactive)
COc1cccc(Nc2n[nH]c(NS(=O)(=O)c3cc(C)c(Cl)cc3S)n2)c1	> 100 µM (inactive)
NNC(=O)/C(=C/c1ccc(Cl)cc1Cl)NC(=O)c1ccccc1	> 100 µM (inactive)
COc1cc2[nH]c3c(c2cc1OC)CCN[C@@]31CC[C@@]2(CC3c4c(cc(OC)c(O)c42)CCN3C)C[C@@H]1OC (stereo partly drawn)	47.1 µM (inactive)
CCOC(=O)c1c(C)[n+]([O-])c2cc(Cl)c(Cl)cc2[n+]1[O-]	24.5 µM (inactive)
CC(C)OP(=O)(OC(C)C)c1nn(-c2ccc([N+](=O)[O-])cc2)c(=N)s1	> 100 µM (inactive)
CCC(C)C(NC(=O)C1CCCN1)C(=O)NC(C(=O)NCC(=O)NC(CC(N)=O)C(=O)NC(CC(C)C)C(=O)NC(CC(C)C)C(=O)NC(CCCCN)C(N)=O)C(C)C (stereo not drawn) (H-PIVGNLLK-NH2; configuration not given here)	> 75 µM (inactive)
